- ASSAY_TARGET: p38α produced and activated in human cells (Homo sapiens)
- Sequence (Q16539 whole entry): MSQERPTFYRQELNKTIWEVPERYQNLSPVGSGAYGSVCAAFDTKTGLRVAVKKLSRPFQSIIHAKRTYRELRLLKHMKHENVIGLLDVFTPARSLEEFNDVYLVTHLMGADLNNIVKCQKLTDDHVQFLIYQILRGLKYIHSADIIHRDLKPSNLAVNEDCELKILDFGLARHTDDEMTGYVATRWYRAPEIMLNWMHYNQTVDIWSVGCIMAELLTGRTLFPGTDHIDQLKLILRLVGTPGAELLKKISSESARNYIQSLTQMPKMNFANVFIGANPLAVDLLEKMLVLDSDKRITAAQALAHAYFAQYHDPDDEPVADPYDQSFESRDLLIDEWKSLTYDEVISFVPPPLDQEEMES
- EXPERIMENT: Kinase inhibitor IC50 determination with p38α produced in human cells
- Assay type: biochemical
- CONDITION_SUMMARY: p38α produced in human cells; read-out: IC50, Human Cell
pIC50: −log10 of the molar value. Structures can show the parent of a compound that is named as a salt.
Below, each entry is listed alongside its reported pIC50.
MEASUREMENT_TYPE: pIC50

[[record]]
molecule = "NCCNS(=O)(=O)c1cccc2cnccc12 [H-9 dihydrochloride]"
assay_target = "p38α produced and activated in human cells (Homo sapiens)"
result = "< 5.00"

[[record]]
molecule = "O=S(=O)(NCCNC/C=C/c1ccc(Br)cc1)c1cccc2cnccc12 [H89 Dihydrochloride]"
assay_target = "p38α produced and activated in human cells (Homo sapiens)"
result = "< 5.00"

[[record]]
molecule = "CN(C)C[C@H]1CCn2c(c(C3=C(c4cn(C)c5ccccc45)C(=O)NC3=O)c3ccccc32)C1"
assay_target = "p38α produced and activated in human cells (Homo sapiens)"
result = "< 5.00"

